Tested on: NCI-H522 lung
Protocol summary: NCI tumour cell line growth inhibition, 48 h
Listed here: items and their measured GI50.

Check out these entries, answers already filled in.
COc1ccc(Nc2cc(C)nc(NCc3ccccc3)n2)cc1 : 3.62 µM
O=c1[nH]c(=O)c2cc3cc(C4CC(O)C(CO)O4)ccc3cc2[nH]1 (stereo not given) : 17.5 µM
COc1cc(/C(=C2/O[C@@H]([C@H]3COC(C)(C)O3)[C@H]3OC(C)(C)O[C@@H]23)c2ccc3ccccc3c2)cc(OC)c1OC : 2.27 µM
Cn1cc(C2=C(c3c4n(c5ccccc35)CCC(CN)C4)C(=O)NC2=O)c2ccccc21 (stereo not given) : 3.84 µM

Consider now this further compound.
Write down GI50 measured for item O=[N+]([O-])c1ccc(C2CC(c3ccccc3)=Nc3ccccc3S2)cc1 (stereo not given) > 100 µM

====

Test system: RXF 393 renal
Protocol summary: NCI tumour cell line growth inhibition, 48 h
Metric: TGI

C=C/C(C)=C\CC1[C@](C)(O)CC[C@H]2C(C)(C)C(O)CC[C@]12C (stereo partly drawn) : > 100 µM
CCOC(=O)NC/C=C/COC1CCCCO1 (stereo not drawn) : > 100 µM

# context switch: different compound, same TGI
Provide one value: measured TGI of CC/C(=C(/c1ccc(O)cc1)c1ccc(OCCN)cc1)c1ccccc1 7.07 µM

====

Tested on: SK-MEL-2 melanoma
Protocol summary: NCI tumour cell line growth inhibition, 48 h
Metric: TGI

Solved entries:
COc1ccc(OC)c(C2CCc3c(cnc4nc(N)nc(N)c34)C2)c1 (centres undefined) : 31.8 µM
CC1=NNC(=O)C1C1CC(c2c[nH]c3ccccc23)=NN(C(N)=O)C1=O (centres undefined) : > 100 µM
COc1cc(O)c2c(c1)O[C@@H]1OCC[C@H]21 : > 100 µM

Let me know recorded TGI for N#CCCN(CCC#N)c1ccc(/C=C(\NC(=O)c2cc([N+](=O)[O-])ccc2Cl)C(=O)Nc2ccccc2)cc1 , thanks. > 100 µM

Using known records, supply TGI for CCOC(=O)c1cc(C(=O)c2cc(OC)c(OC)c(OC)c2)n2c1ccc1ccccc12 > 100 µM

Return the recorded TGI value; entry: COc1cc2ncnc(Nc3cccc(Cl)c3F)c2cc1OC(=O)N1CCN(C)C[C@H]1C > 61.1 µM

Please indicate TGI recorded for CCOC(=O)c1cc2c3c(c(C(C)=O)c(O)c2[nH]1)N(C(C)=O)CC3 > 100 µM

Look up TGI of CC(=NNC(=S)Nc1cccc(C)c1)c1cccc(C(C)=NNC(=S)Nc2cccc(C)c2)n1 and report it. 74 µM

Tell me measured TGI for CC1CC/C(=C\c2ccc(N(C)C)cc2)C2=C1C(c1ccc(N(C)C)cc1)NC(=S)N2 (centres undefined) please. > 100 µM

====

System: MALME-3M melanoma
Protocol summary: NCI tumour cell line growth inhibition, 48 h
Recorded measurements of TGI, one per entry

Answered examples (9):
CC1(C)CC[C@]2(C(=O)O)CC[C@]3(C)C(=CC[C@@H]4[C@@]5(C)C[C@H](O)[C@H](O)[C@@](C)(C(=O)O)[C@@H]5CC[C@]43C)[C@@H]2C1 : > 100 µM
CN(C)CCCCC(C(=O)CBr)(c1ccccc1)c1ccccc1 : 3.62 µM
C=C1CCCC(C)(C)C1CCC1(C)CCC(C(C)C(=O)OC)OO1 (stereo not given) : > 25 µM
CN(C)CCCNc1ncnc2c1ncn2C1OC(CO)C(O)C1O (stereo not given) : > 100 µM
Cc1cc(Nc2ncc3c(n2)N(C)C(=O)N(c2cc(NC(=O)c4cccc(C(F)(F)F)c4)ccc2C)C3)n(C)n1 : 0.0489 µM
CCOC(=O)C(C(=O)OCC)c1ccc([N+](=O)[O-])o1 : 17.6 µM
CCOC(=O)C1(C(=O)OCC)C[C@@H](C)[C@@H](O)C1 : > 100 µM
C=C/C(C)=C\CC1[C@](C)(O)CC[C@H]2C(C)(C)C(O)CC[C@]12C (stereo not given in full) : > 100 µM
Nc1nc(N)c(-c2ccccc2)c(C(=O)Nc2ccccc2)n1 : > 100 µM

Next up:
Please look at this molecule and report its TGI: CC(Oc1ccccc1Cl)C(=O)NN1C(=O)CC(=O)NC1=S (stereo not given) > 100 µM

====

System: OVCAR-4 ovarian
Protocol summary: NCI tumour cell line growth inhibition, 48 h
Metric: TGI

Worked examples, 5 compounds total:
O=C(/C=C/c1ccc(C(F)(F)F)cc1)c1c([O-])on[n+]1-c1ccccc1 : 48.9 µM
CCCCCCn1c(-c2ccc(C(=O)O/N=C(\N)c3ccc4ccccc4c3)cc2)nc(-c2ccccc2)c1-c1ccccc1 : > 100 µM
N/C(=N/N=C/c1ccccc1)N/N=C\c1ccccc1 : > 100 µM
C/C(=N\NC(=S)NCCCCNC(=S)N/N=C(\C)c1ccccn1)c1ccccc1 : > 54.2 µM
Cc1c(Cl)nc(Cl)nc1Cl : 2.8 µM

Quickly give me recorded TGI for N#CCCCCCOCCOCCOCCOCCOCCCCCC#N > 100 µM

Look up and state reported TGI for CC1=NN(c2ccc(S(=O)(=O)O)cc2)C(=O)/C1=C/c1ccc(Cl)cc1 > 100 µM

Specify measured TGI for COc1ccc2cc(C(=O)/C=C/c3ccc(N(C)C)cc3)ccc2c1 . > 100 µM

Recall and state the measured TGI for CC(=O)C1Cn2c(=O)c3cc4ccccc4cc3c(=O)n2C=C1C (stereo unspecified) . > 100 µM

Quote TGI reported for O=C(CCCN1CCC(Nc2ccccc2)(c2nnnn2C2CCCCC2)CC1)c1ccc(F)cc1 please. 20.5 µM

Look up TGI of CC1=NC2c3c(-c4ccc(Cl)cc4)cn(-c4ccc(C)cc4)c3N=CN2N1 (stereo unspecified) and report it. 33.3 µM

Indicate the recorded TGI value for this compound: COc1ccc(Nc2cc(C)nc(NCc3ccccc3)n2)cc1 19.3 µM

Give recorded TGI. COc1ccc(C(O)(c2ccccc2)c2nccc3ccccc23)cc1 (stereo unspecified) > 100 µM

Read the entry CC(C)(C)[Si](C)(C)OC1[C@@H](O[Si](C)(C)C(C)(C)C)[C@@H](CNC(=O)NC(=O)CF)O[C@H]1n1cnc2c(NC(=O)Nc3ccccc3)ncnc21 (stereo partly specified) and write its reported TGI. > 50 µM

Output measured TGI for this item: O=c1[nH]c(=O)c2cc3cc(C4CC(O)C(CO)O4)ccc3cc2[nH]1 (stereo unspecified) > 100 µM

Given COc1ccc(-c2c3c(n(C4OC(COC(C)=O)C(OC(C)=O)C(OC(C)=O)C4OC(C)=O)c(=S)c2C#N)CCC3)cc1 (stereo unspecified) , respond with its TGI. > 100 µM

====

Tested on: SK-MEL-2 melanoma
Protocol summary: NCI tumour cell line growth inhibition, 48 h
Metric: TGI (µM)
Numbers only here, please. The scale is µM.

CCSc1cc2c(cc1O)CC[C@@H]1[C@@H]2CC[C@]2(C)[C@@H](O)CC[C@@H]12 : 37.7

Please report the measured TGI for O=C1C=CC(=O)c2c1ccc1c3ccccc3n(-c3ccccc3)c21 26.6

Please supply the value of reported TGI for the item CCCNCC(=O)O[C@]1(CC)C(=O)OCc2c1cc1n(c2=O)Cc2cc3ccccc3nc2-1 3.68

Name the recorded TGI of the compound listed here: CC/C(=C(/c1ccc(O)cc1)c1ccc(OCCN)cc1)c1ccccc1 8.55

Specify measured TGI for C[C@]12CC[C@@H]3c4cc(OC(F)F)c(OS(N)(=O)=O)cc4CC[C@H]3[C@@H]1CC[C@@H]2OS(N)(=O)=O . 24.9

Name the recorded TGI of the compound listed here: C[C@]12CC[C@@H]3c4cc(O)c(O)cc4CC[C@H]3[C@@H]1CC[C@@H]2O 22.2

Please indicate TGI recorded for N/C(=N/N=C/c1ccccc1)N/N=C\c1ccccc1 43.9

Answer with the recorded TGI for the compound listed here: O=C(O)c1nc2ccc(C(F)(F)F)cc2nc1NCc1ccc(Cl)c(Cl)c1 27.8

====

Test system: SF-539 CNS
Protocol summary: NCI tumour cell line growth inhibition, 48 h
Each record here notes measured TGI.

# example entries with known answers
O=C(NNC1=NCCCCN1)Nc1ccc(Cl)cc1 : > 100 µM
C=CCN1C[C@H](C)N([C@@H](c2ccc(C(=O)N3CCCCC3)cc2)c2cccc(OC)c2)C[C@H]1C : 67.7 µM
CC(=NNC(=S)Nc1cccc(C)c1)c1cccc(C(C)=NNC(=S)Nc2cccc(C)c2)n1 : 46.1 µM
COC(=O)C1=C(OC(=O)/C(=C/c2ccccc2)c2ccc(Cl)cc2)C(C(=O)OC)[C@@]2(O)[C@@H](C(=O)OC)[C@H](C)C[C@@H]1[C@@H]2C(=O)OC (some centres undefined) : > 100 µM

Would you kindly look at the next entry?
Please give measured TGI of the following entry: NNC(=O)CCSc1ccccc1 > 100 µM
